- Test system: NCI-H322M lung
- ASSAY PROTOCOL: NCI-60 one-dose screen, 48 h (100 = growth as untreated, 0 = no growth, -100 = all killed)
- ASSAY CONTEXT: 10 µM unless noted
Compounds without any hit were thinned out: in the full panel of roughly 83,000, 20% have a hit. The source made the active and inactive calls. How the source made its calls: active means growth percent below 10; inactive means the rest.
Please provide measured growth for the entries that follow.

Worked set:
COc1cc2oc(-c3cccc(N)c3)cc(=O)c2c(OC)c1OC; 102% (inactive)
Cc1nn(-c2ccccc2)c2ncnc(N/N=C/c3cccc(O)c3)c12; 73.1% (inactive)
O=C(Cn1cc(-c2ccccc2)nn1)Nc1nc(-c2ccc(Cl)cc2)cs1; 100% (inactive)
COc1ccc(Oc2ccc(/C=N/NC(=O)CSc3nc4ccccc4c(=O)n3-c3ccc(Cl)cc3)cc2)cc1; 84.7% (inactive)
COc1ccccc1NC1=C(Cl)C(=O)c2nc(C)ccc2C1=O; 71.1% (inactive)

I'm hoping you can list growth for every molecule here, please.
1. Nc1ncc(-c2ccc(NS(=O)(=O)c3ccc(Cl)c(Cl)c3)cc2)[nH]1
2. O=C(CCC(=O)N1CCOCC1)OCCCCCCSc1ccc([N+](=O)[O-])c2nonc12

RESULT:
["97% (inactive)", "45.6% (inactive)"]

###

- System: SK-MEL-5 melanoma
- ASSAY PROTOCOL: NCI-60 one-dose screen, 48 h (100 = growth as untreated, 0 = no growth, -100 = all killed)
- ASSAY CONTEXT: 10 µM unless noted
The panel holds about 83,000 compounds, 20% with a hit somewhere; the sample as a whole holds those more often. The source made the active and inactive calls. The calls were made as follows: active = growth percent below 10; inactive = the rest.
PARAMETER: growth

Worked set:
O=S(=O)(NC1c2ccccc2C[C@H]1O)c1ccc(Cl)cc1Cl (some centres undefined); 99.4% (inactive)
CC(Nc1c(C#N)cnc2ccc(-c3cnc(N)nc3)cc12)c1ccccc1 (centres undefined); -67.3% (active)
Nc1cc(-c2c[nH]c3ccc(Br)cc23)nc2cc(-c3c[nH]c4ccc(Br)cc34)nn12; 36.7% (inactive)
C#Cc1ccc(C(=O)NCc2ccc(/C=C/C(=O)c3nccn3C)cc2)cc1; 38.8% (inactive)
COc1ccc(-c2nn(-c3ccc(S(C)(=O)=O)cc3)cc2/C=N/O)cc1; 98.7% (inactive)

I'm hoping you can list growth for every compound here, please.
1. CCO/C=N/C1=C(C#N)C(c2ccc(Cl)cc2)c2sc3c(C)cccc3c2O1 (centres undefined)
2. CCN(CC)c1ccc(NC2=C(Cl)C(=O)c3nc(C)ccc3C2=O)cc1
3. Fc1ccc(-c2cc3nc(C(Cl)Cl)nc(-c4ccco4)n3n2)cc1
4. CCn1c(SCC(=O)Nc2cccc(C(=O)/C=C/c3ccc(Br)cc3)c2)nc2ccccc2c1=O
5. CCCCCc1ccc(S(=O)(=O)Nc2cccc(-c3csc(NC(=O)CCCCCN4CCN(CCO)CC4)n3)c2)cc1
6. Cc1cc(-c2ccc(Cl)cc2)n(Cc2nnc(SCC(=O)Nc3ccc(S(N)(=O)=O)cc3)n2-c2ccc([N+](=O)[O-])cc2)n1
7. CC(C)c1ccc(NCc2cn(-c3ccc(C(=O)O)cc3)nc2-c2cc(C(F)(F)F)cc(C(F)(F)F)c2)cc1

RESULT:
30.7% (inactive)
79.3% (inactive)
95.9% (inactive)
91.7% (inactive)
66.1% (inactive)
95.9% (inactive)
96% (inactive)
